# target.system: UniProt:A0AAT8XUA9
# Sequence (A0AAT8XUA9 entry or part of it): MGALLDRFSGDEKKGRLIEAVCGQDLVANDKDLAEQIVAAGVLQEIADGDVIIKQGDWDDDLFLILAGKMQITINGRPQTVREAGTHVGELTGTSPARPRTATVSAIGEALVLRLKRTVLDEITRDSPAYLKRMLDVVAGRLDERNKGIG
# method: isothermal titration calorimetry
# Assay type: binding
result.type: Kd (nM)
// units = nM; emit number, no label

# input Which Kd reading was recorded for the molecule O=c1ccn([C@@H]2O[C@@H]3COP(=O)(O)O[C@H]3[C@H]2O)c(=O)[nH]1 ?
# output 1

---

# target.system: AhPycTIRCNBD (Acinetobacter haemolyticus, UniProt N9FD06)
# Construct: gene F927_00926
# Sequence (N9FD06 entry or part of it): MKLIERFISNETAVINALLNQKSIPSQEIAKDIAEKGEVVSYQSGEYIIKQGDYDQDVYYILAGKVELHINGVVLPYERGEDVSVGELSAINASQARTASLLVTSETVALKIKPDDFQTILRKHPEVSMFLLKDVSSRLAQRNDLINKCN
# method: isothermal titration calorimetry
# Format: binding
result.type: Kd (µM)
// units = µM; emit number, no label

# input Form entry - test system: AhPycTIRCNBD (Acinetobacter haemolyticus, UniProt N9FD06); read-out: Kd; molecule: O=c1ccn([C@@H]2O[C@@H]3COP(=O)(O)O[C@H]3[C@H]2O)c(=O)[nH]1 [cUMP]
# output 0.82

---

# target.system: SmPycTIRCNBD (Stenotrophomonas maltophilia)
# method: isothermal titration calorimetry
result.type: Kd (µM)
// units = µM; emit number, no label

# input Which Kd reading was recorded for the compound O=c1ccn([C@@H]2O[C@@H]3COP(=O)(O)O[C@H]3[C@H]2O)c(=O)[nH]1 ?
# output 0.27

---

# target.system: PsPycTIRCNBD (Pseudovibrio sp. W64)
# Construct: dimer with cUMP
# Sequence (A0ACD6BAZ5 entry or part of it): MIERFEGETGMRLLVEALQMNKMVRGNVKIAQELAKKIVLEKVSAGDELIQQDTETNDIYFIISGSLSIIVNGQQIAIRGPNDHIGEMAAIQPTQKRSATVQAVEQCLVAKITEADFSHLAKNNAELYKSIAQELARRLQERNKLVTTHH
# method: isothermal titration calorimetry
# Text: isothermal titration calorimetry on PsPycTIRCNBD
result.type: Kd (nM)
// units = nM; emit number, no label

# input Which Kd reading was recorded for the molecule O=c1ccn([C@@H]2O[C@@H]3COP(=O)(O)O[C@H]3[C@H]2O)c(=O)[nH]1 ?
# output 1
